# Lookup of reported LC50 at 96 h keyed by entry
test: Acute toxicity to fish; format: in vivo, Danio rerio; details: Danio rerio, in vivo, pH 7, 96 hour test cycle, 23±1° C., linear interpolation; read-out: Danio rerio the LC50 values at the 96th hour

COMPOUND | LC50 at 96 h
Cc1ccc(NC(=O)Nc2cccnc2)cc1 [Compound 16] | > 100 µg/mL
O=C(Nc1cccnc1)Nc1ccccc1Cl [Compound 6] | > 100 µg/mL
O=C(Nc1ccc([N+](=O)[O-])cc1)Nc1cccnc1 [Compound 10] | > 100 µg/mL
O=C(Nc1cccnc1)Nc1cccc(F)c1 [Compound 11] | > 100 µg/mL
Cc1cccc(NC(=O)Nc2cccnc2)c1 [Compound 12] | > 100 µg/mL
O=C(Nc1cccnc1)Nc1ccc(F)cc1C(F)(F)F [Compound 5] | > 100 µg/mL
O=C(Nc1cccnc1)Nc1ccccc1F [Compound 3] | > 100 µg/mL
O=C(Nc1ccc(Br)cc1)Nc1cccnc1 [Compound 13] | 15 µg/mL
O=C(Nc1cccnc1)Nc1ccc(Cl)cc1Cl [Compound 8] | > 100 µg/mL
O=C(Nc1cccnc1)Nc1cccc(Cl)c1 [Compound 4] | > 100 µg/mL
O=C(Nc1cccnc1)Nc1ccc(F)cc1F [Compound 1] | > 100 µg/mL
O=C(Nc1ccc(Cl)cc1)Nc1cccnc1 [Compound 14] | 15 µg/mL
O=C(Nc1cccnc1)Nc1cc(F)cc(F)c1 [Compound 9] | > 100 µg/mL
Cc1ccccc1NC(=O)Nc1cccnc1 [Compound 15] | > 100 µg/mL
O=C(Nc1cccnc1)Nc1ccc(Cl)cc1C(F)(F)F [Compound 7] | > 100 µg/mL
O=C(Nc1ccc(OC(F)(F)F)cc1)Nc1cccnc1 [Compound 2] | > 100 µg/mL
O=C(Nc1ccc([N+](=O)[O-])cc1Cl)c1cc(Cl)ccc1O [niclosamide, reference compound] | 0.21 µg/mL
